Tested on: momingglory (Ipomoea coccinea)
test.name: Test E greenhouse herbicide test, pre- and postemergence
Type: in vivo
test.settings: Preemergence, 31 g ai/ha; scale 0 to 100, 0 no effect, 100 complete control
experimental.readout: Plant response rating, Morningglory

Query: # get_value(readout='Plant response rating, Morningglory', item= `CC(=O)Oc1c(C)nn(C)c(=O)c1-c1c(C)sc2ccc(C)cc12` )
Result: 65

Query: # get_value(readout='Plant response rating, Morningglory', item= `Cc1cc(C)c2sc(C)c(-c3c(OC(=O)OCCCl)c(C)nn(C)c3=O)c2c1` )
Result: 25

Query: # get_value(readout='Plant response rating, Morningglory', item= `Cc1ccc2sc(C)c(-c3c(O)c(C)nn(C)c3=O)c2c1` )
Result: 60

Query: # get_value(readout='Plant response rating, Morningglory', item= `CC(=O)Oc1c(C)nn(C)c(=O)c1-c1c(C)sc2c(C)cc(C)cc12` )
Result: 85
